Field: solubility (mole fraction). Provide a value for each of the compounds that follow.
# condition_notes: in n-butanol, 313.15 K
Answers are plain numbers.

Look over these answered cases.
[[record]]
molecular_string = "O=C(/C=C/c1cn(-c2ccccc2)nc1-c1ccccc1Cl)c1nc2ccccc2[nH]1"
observed_property = "solubility (mole fraction)"
measured_number = 0.0004

[[record]]
molecular_string = "O=C(/C=C/c1cn(-c2ccccc2)nc1-c1cccc([N+](=O)[O-])c1)c1nc2ccccc2[nH]1"
observed_property = "solubility (mole fraction)"
measured_number = 0.000324

[[record]]
molecular_string = "O=C(/C=C/c1cn(-c2ccccc2)nc1-c1ccc(Cl)cc1)c1nc2ccccc2[nH]1"
observed_property = "solubility (mole fraction)"
measured_number = 0.000216

[[record]]
molecular_string = "COc1ccc(-c2nn(-c3ccccc3)cc2/C=C/C(=O)c2nc3ccccc3[nH]2)cc1"
observed_property = "solubility (mole fraction)"
measured_number = 0.00142

[[record]]
molecular_string = "O=C(/C=C/c1cn(-c2ccccc2)nc1-c1ccccc1)c1nc2ccccc2[nH]1"
observed_property = "solubility (mole fraction)"
measured_number = 0.000335


Give solubility (mole fraction) for all compounds that follow.
1. COc1cccc(-c2nn(-c3ccccc3)cc2/C=C/C(=O)c2nc3ccccc3[nH]2)c1
2. COc1ccc(-c2nn(-c3ccccc3)cc2/C=C/C(=O)c2nc3ccccc3[nH]2)cc1OC

1: 0.00023; 2: 0.00028
